Target: Vitamin D3 receptor (Bos taurus)
Assay: Affinity for bovine thymus vitamin D receptor
Tag: TRUE if measured Activity is not below 60, FALSE if it is.

Some entries whose results are on file:
compound	assignedCategory
C=C1/C(=C\C=C2/CCC[C@@]3(C)C2CC[C@@H]3C(CCCC(C)(C)O)CCCC(C)(C)O)C[C@@H](O)[C@H](C)[C@@H]1O (stereo not given in full)	FALSE
C=C1/C(=C\C=C2/CCC[C@@]3(C)C2CC[C@@H]3C(CCCC(C)(C)O)CCCC(C)(C)O)C[C@@H](O)C[C@@H]1O (stereo not given in full)	FALSE
C=C1/C(=C\C=C2/CCC[C@@]3(C)C2CC[C@@H]3C(CCCC(C)(C)O)CCCC(C)(C)O)C[C@@H](O)[C@H](OCCCO)[C@@H]1O (stereo not given in full)	FALSE
C=C1/C(=C\C=C2/CCC[C@@]3(C)C2CC[C@@H]3C(CCCC(C)(C)O)CCCC(C)(C)O)C[C@@H](O)[C@H](CCCO)[C@@H]1O (stereo not given in full)	FALSE

From here, focus on the item given below.
State whether the measured Activity reaches 60, counting equality as reaching it, for C=C1/C(=C\C=C2/CCC[C@]3(C)[C@@H]([C@H](C)CCCC(C)(C)O)CC[C@@H]23)C[C@@H](O)C[C@@H]1O
TRUE
